Data provenance: ChEMBL document CHEMBL4339190

# System: Staphylococcus aureus
# Assay Notes: Antimicrobial activity against Staphylococcus aureus ATCC 6538 assessed as growth inhibition of planktonic forms incubated for 24 hrs
# Assay type: organism-based
# Condition Summary: in vitro
Parameter Measured: MIC

Example compounds with recorded MIC:
{"Record Smiles": "Cn1cc(-c2nn3cc(-c4ccccc4)nc3s2)c2cc(Cl)ccc21", "MIC": "> 100 µg/mL"}
{"Record Smiles": "Br.Cn1cc(-c2nn3cc(-c4ccc(F)cc4)nc3s2)c2cc(Br)ccc21", "MIC": "> 100 µg/mL"}
{"Record Smiles": "Cn1cc(-c2nn3cc(-c4ccc(F)cc4)nc3s2)c2cc(Cl)ccc21", "MIC": "> 100 µg/mL"}
{"Record Smiles": "Cn1cc(-c2nn3cc(-c4ccc([N+](=O)[O-])cc4)nc3s2)c2cc(Cl)ccc21", "MIC": "> 100 µg/mL"}
{"Record Smiles": "FC(F)(F)c1ccc(-c2cn3nc(-c4c[nH]c5ccc(Cl)cc45)sc3n2)cc1", "MIC": "> 100 µg/mL"}

stdin: Answer briefly: MIC recorded on Staphylococcus aureus for `O=[N+]([O-])c1ccc(-c2cn3nc(-c4c[nH]c5ccccc45)sc3n2)cc1`
stdout: > 100 µg/mL

stdin: GET MIC | system: Staphylococcus aureus | item: `Br.Cn1cc(-c2nn3cc(-c4ccccc4)nc3s2)c2cc(Br)ccc21`
stdout: > 100 µg/mL
